- Test system: α-amylase
- Measurement Notes: α-amylase enzyme inhibition assay
- Format: biochemical, Saccharomyces cerevisiae
- Stated Conditions: concentration 500 µg/mL
Property: % α-Amylase Activity (%)
Field: numeric (%). Do not append units.

Some solved entries appear below for comparison.
[
  {
    "Compound": "Cc1ccccn1.Cc1ccccn1.O=C([O-])Cc1ccc(F)c(F)c1.O=C([O-])Cc1ccc(F)c(F)c1.O=C([O-])Cc1ccc(F)c(F)c1.O=C([O-])Cc1ccc(F)c(F)c1.[Cu+2].[Cu+2] [complex 1, [Cu2(3,4-F2C6H3CH2COO)4(2-CH3py)2]]",
    "Quantity Unit": "%",
    "% α-Amylase Activity": 51.22
  },
  {
    "Compound": "Cc1cccnc1.Cc1cccnc1.O=C([O-])Cc1ccc(F)c(F)c1.O=C([O-])Cc1ccc(F)c(F)c1.O=C([O-])Cc1ccc(F)c(F)c1.O=C([O-])Cc1ccc(F)c(F)c1.[Cu+2].[Cu+2] [complex 2, [Cu2(3,4-F2C6H3CH2COO)4(3-CH3py)2]]",
    "Quantity Unit": "%",
    "% α-Amylase Activity": 50.30
  },
  {
    "Compound": "O=C(O)Cc1ccc(F)c(F)c1",
    "Quantity Unit": "%",
    "% α-Amylase Activity": 32.95
  }
]

Moving on to another compound below.
Form: compound = C[C@H]1O[C@H](O[C@H]2[C@H](O)[C@@H](O)[C@@H](O[C@H]3[C@H](O)[C@@H](O)C(O)O[C@@H]3CO)O[C@@H]2CO)[C@H](O)[C@@H](O)[C@@H]1N[C@H]1C=C(CO)[C@@H](O)[C@H](O)[C@H]1O (stereo partly shown) [Acrabose, acarbose, reference compound] ; % α-Amylase Activity = 84.33

###

- Measurement Notes: DPPH free radical scavenging assay
- Stated Conditions: DPPH; dose conc. 120 µM
The entries below are paired with their reported % Inhibition.
Numbers only; they are read as %.

Sample answers from the record:
[
  {
    "Compound": "Cc1ccccn1.Cc1ccccn1.O=C([O-])Cc1ccc(F)c(F)c1.O=C([O-])Cc1ccc(F)c(F)c1.O=C([O-])Cc1ccc(F)c(F)c1.O=C([O-])Cc1ccc(F)c(F)c1.[Cu+2].[Cu+2] [complex 1, [Cu2(3,4-F2C6H3CH2COO)4(2-CH3py)2]]",
    "% Inhibition (%)": 39.00
  },
  {
    "Compound": "Cc1cccnc1.Cc1cccnc1.O=C([O-])Cc1ccc(F)c(F)c1.O=C([O-])Cc1ccc(F)c(F)c1.O=C([O-])Cc1ccc(F)c(F)c1.O=C([O-])Cc1ccc(F)c(F)c1.[Cu+2].[Cu+2] [complex 2, [Cu2(3,4-F2C6H3CH2COO)4(3-CH3py)2]]",
    "% Inhibition (%)": 21.500
  }
]

Quick note, % Inhibition for O=C1O[C@H]([C@@H](O)CO)C(O)=C1O [Vit. C, ascorbic acid, reference compound] landed at 58.09

Just so you know, measured % Inhibition for O=C(O)Cc1ccc(F)c(F)c1 came out at 7.77

###

Entries and their % α-Amylase Activity
- Tested on: α-amylase
- Measurement Notes: α-amylase enzyme inhibition assay
- Format: biochemical, Saccharomyces cerevisiae
- Stated Conditions: concentration 125 µg/mL
The reply should be a number in %, with the unit left off.

Below: 3 molecules and their reported % α-Amylase Activity.
[
  {
    "Molecule": "O=C(O)Cc1ccc(F)c(F)c1",
    "% α-Amylase Activity (%)": 9.22
  },
  {
    "Molecule": "Cc1ccccn1.Cc1ccccn1.O=C([O-])Cc1ccc(F)c(F)c1.O=C([O-])Cc1ccc(F)c(F)c1.O=C([O-])Cc1ccc(F)c(F)c1.O=C([O-])Cc1ccc(F)c(F)c1.[Cu+2].[Cu+2] [complex 1, [Cu2(3,4-F2C6H3CH2COO)4(2-CH3py)2]]",
    "% α-Amylase Activity (%)": 22.24
  },
  {
    "Molecule": "Cc1cccnc1.Cc1cccnc1.O=C([O-])Cc1ccc(F)c(F)c1.O=C([O-])Cc1ccc(F)c(F)c1.O=C([O-])Cc1ccc(F)c(F)c1.O=C([O-])Cc1ccc(F)c(F)c1.[Cu+2].[Cu+2] [complex 2, [Cu2(3,4-F2C6H3CH2COO)4(3-CH3py)2]]",
    "% α-Amylase Activity (%)": 20.46
  }
]

C[C@H]1O[C@H](O[C@H]2[C@H](O)[C@@H](O)[C@@H](O[C@H]3[C@H](O)[C@@H](O)C(O)O[C@@H]3CO)O[C@@H]2CO)[C@H](O)[C@@H](O)[C@@H]1N[C@H]1C=C(CO)[C@@H](O)[C@H](O)[C@H]1O (stereo partly shown) [Acrabose, acarbose, reference compound] tested on α-amylase gave % α-Amylase Activity: 46.39

###

- Measurement Notes: DPPH free radical scavenging assay
- Stated Conditions: DPPH; dose conc. 15 µM
Property: % Inhibition

[
  {
    "Molecule": "O=C1O[C@H]([C@@H](O)CO)C(O)=C1O [Vit. C, ascorbic acid, reference compound]",
    "% Inhibition": "7.09%"
  },
  {
    "Molecule": "Cc1ccccn1.Cc1ccccn1.O=C([O-])Cc1ccc(F)c(F)c1.O=C([O-])Cc1ccc(F)c(F)c1.O=C([O-])Cc1ccc(F)c(F)c1.O=C([O-])Cc1ccc(F)c(F)c1.[Cu+2].[Cu+2] [complex 1, [Cu2(3,4-F2C6H3CH2COO)4(2-CH3py)2]]",
    "% Inhibition": "8.07%"
  },
  {
    "Molecule": "O=C(O)Cc1ccc(F)c(F)c1",
    "% Inhibition": "1.09%"
  }
]

Please look at the following molecule next.
Record summary for Cc1cccnc1.Cc1cccnc1.O=C([O-])Cc1ccc(F)c(F)c1.O=C([O-])Cc1ccc(F)c(F)c1.O=C([O-])Cc1ccc(F)c(F)c1.O=C([O-])Cc1ccc(F)c(F)c1.[Cu+2].[Cu+2] [complex 2, [Cu2(3,4-F2C6H3CH2COO)4(3-CH3py)2]] : reported % Inhibition = 4.045%

###

- Measurement Notes: DPPH free radical scavenging assay
- Stated Conditions: DPPH; dose conc. 240 µM
Property: % Inhibition (%)
Numeric only. Scale: %

Example cases with answers are listed next.
[
  {
    "Compound": "O=C(O)Cc1ccc(F)c(F)c1",
    "Quantity Unit": "%",
    "% Inhibition": 12.55
  },
  {
    "Compound": "Cc1cccnc1.Cc1cccnc1.O=C([O-])Cc1ccc(F)c(F)c1.O=C([O-])Cc1ccc(F)c(F)c1.O=C([O-])Cc1ccc(F)c(F)c1.O=C([O-])Cc1ccc(F)c(F)c1.[Cu+2].[Cu+2] [complex 2, [Cu2(3,4-F2C6H3CH2COO)4(3-CH3py)2]]",
    "Quantity Unit": "%",
    "% Inhibition": 32.550
  },
  {
    "Compound": "O=C1O[C@H]([C@@H](O)CO)C(O)=C1O [Vit. C, ascorbic acid, reference compound]",
    "Quantity Unit": "%",
    "% Inhibition": 82.35
  }
]

get_value(item= Cc1ccccn1.Cc1ccccn1.O=C([O-])Cc1ccc(F)c(F)c1.O=C([O-])Cc1ccc(F)c(F)c1.O=C([O-])Cc1ccc(F)c(F)c1.O=C([O-])Cc1ccc(F)c(F)c1.[Cu+2].[Cu+2] [complex 1, [Cu2(3,4-F2C6H3CH2COO)4(2-CH3py)2]] , readout=% Inhibition) returns 51.12

###

- Measurement Notes: Hydroxyl radical scavenging assay
- Stated Conditions: hydroxyl radical; dose conc. 30 µM
Property: % Inhibition (%)
Provide the reading as a plain figure in %.

[
  {
    "Compound": "Cc1ccccn1.Cc1ccccn1.O=C([O-])Cc1ccc(F)c(F)c1.O=C([O-])Cc1ccc(F)c(F)c1.O=C([O-])Cc1ccc(F)c(F)c1.O=C([O-])Cc1ccc(F)c(F)c1.[Cu+2].[Cu+2] [complex 1, [Cu2(3,4-F2C6H3CH2COO)4(2-CH3py)2]]",
    "% Inhibition (%)": 10.00
  },
  {
    "Compound": "O=C(O)Cc1ccc(F)c(F)c1",
    "% Inhibition (%)": 1.050
  },
  {
    "Compound": "Cc1cccnc1.Cc1cccnc1.O=C([O-])Cc1ccc(F)c(F)c1.O=C([O-])Cc1ccc(F)c(F)c1.O=C([O-])Cc1ccc(F)c(F)c1.O=C([O-])Cc1ccc(F)c(F)c1.[Cu+2].[Cu+2] [complex 2, [Cu2(3,4-F2C6H3CH2COO)4(3-CH3py)2]]",
    "% Inhibition (%)": 1.30
  }
]

Consider the additional compound presented here.
Value of % Inhibition reported for the compound O=C1O[C@H]([C@@H](O)CO)C(O)=C1O [Vit. C, ascorbic acid, reference compound] is 10.49

###

- Test system: α-amylase
- Measurement Notes: α-amylase enzyme inhibition assay
- Assay type: biochemical, Saccharomyces cerevisiae
- Stated Conditions: concentration 62.5 µg/mL
Property: % α-Amylase Activity (%)
Express your answer in %, writing the number without its unit.

Use these answered entries as a reference point.
[
  {
    "Compound": "C[C@H]1O[C@H](O[C@H]2[C@H](O)[C@@H](O)[C@@H](O[C@H]3[C@H](O)[C@@H](O)C(O)O[C@@H]3CO)O[C@@H]2CO)[C@H](O)[C@@H](O)[C@@H]1N[C@H]1C=C(CO)[C@@H](O)[C@H](O)[C@H]1O (stereo partly shown) [Acrabose, acarbose, reference compound]",
    "Property": "% α-Amylase Activity",
    "Quantity Unit": "%",
    "Measured Number": 26.42
  },
  {
    "Compound": "Cc1ccccn1.Cc1ccccn1.O=C([O-])Cc1ccc(F)c(F)c1.O=C([O-])Cc1ccc(F)c(F)c1.O=C([O-])Cc1ccc(F)c(F)c1.O=C([O-])Cc1ccc(F)c(F)c1.[Cu+2].[Cu+2] [complex 1, [Cu2(3,4-F2C6H3CH2COO)4(2-CH3py)2]]",
    "Property": "% α-Amylase Activity",
    "Quantity Unit": "%",
    "Measured Number": 7.24
  },
  {
    "Compound": "Cc1cccnc1.Cc1cccnc1.O=C([O-])Cc1ccc(F)c(F)c1.O=C([O-])Cc1ccc(F)c(F)c1.O=C([O-])Cc1ccc(F)c(F)c1.O=C([O-])Cc1ccc(F)c(F)c1.[Cu+2].[Cu+2] [complex 2, [Cu2(3,4-F2C6H3CH2COO)4(3-CH3py)2]]",
    "Property": "% α-Amylase Activity",
    "Quantity Unit": "%",
    "Measured Number": 8.33
  }
]

Next, consider the following compound.
Simply: O=C(O)Cc1ccc(F)c(F)c1 , α-amylase, % α-Amylase Activity = 1.9
